Data provenance is patent US20200017592A1.

Biological target: T1, in-line fusion protein of human IL-36R extracellular domain and IL1RAcP extracellular domain expressed with … (human; mouse, UniProt Q9HB29 20-337; Q9NPH3 21-359, limits assumed)
T1 construct: not shown: mouse IgG2a Fc
T1 sequence (looked up): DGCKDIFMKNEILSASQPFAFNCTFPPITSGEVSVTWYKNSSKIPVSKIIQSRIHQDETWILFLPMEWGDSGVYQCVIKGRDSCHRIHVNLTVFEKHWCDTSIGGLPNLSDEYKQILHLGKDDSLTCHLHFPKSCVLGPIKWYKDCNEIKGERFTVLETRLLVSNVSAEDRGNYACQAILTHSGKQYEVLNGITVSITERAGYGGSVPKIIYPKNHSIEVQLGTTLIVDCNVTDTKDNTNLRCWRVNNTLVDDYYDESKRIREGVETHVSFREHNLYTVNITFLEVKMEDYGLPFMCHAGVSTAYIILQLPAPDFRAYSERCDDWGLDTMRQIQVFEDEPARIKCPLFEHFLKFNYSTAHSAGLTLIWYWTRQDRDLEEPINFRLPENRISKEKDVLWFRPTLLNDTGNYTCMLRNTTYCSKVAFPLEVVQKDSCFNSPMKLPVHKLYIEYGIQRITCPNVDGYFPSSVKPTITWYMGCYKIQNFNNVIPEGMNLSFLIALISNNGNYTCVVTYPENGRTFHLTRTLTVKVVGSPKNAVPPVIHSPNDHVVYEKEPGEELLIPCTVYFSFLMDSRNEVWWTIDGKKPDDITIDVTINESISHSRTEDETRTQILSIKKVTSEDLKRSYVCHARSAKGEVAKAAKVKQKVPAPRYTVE
Experiment: SPR Biacore 4000, mAb captured on anti-hFc, 37C
Consider the following binders and their measured kon readings.
Just the number please, in M⁻¹ s⁻¹, no unit attached.

A selection of reference data follows.
{"Binder": "H4H14699P2 (antibody, human IgG4 S228P, kappa, V domains shown, Fully human anti-IL-36R antibody) VH: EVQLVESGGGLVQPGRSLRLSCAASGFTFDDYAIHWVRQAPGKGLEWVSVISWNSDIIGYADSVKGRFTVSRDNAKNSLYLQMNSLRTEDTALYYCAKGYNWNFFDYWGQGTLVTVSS VL: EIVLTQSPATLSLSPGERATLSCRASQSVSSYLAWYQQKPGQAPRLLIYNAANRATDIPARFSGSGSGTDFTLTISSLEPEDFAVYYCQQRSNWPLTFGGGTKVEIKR", "kon [M⁻¹ s⁻¹]": 484000}
{"Binder": "H4H14706P2 (antibody, human IgG4 S228P, kappa, V domains shown, Fully human anti-IL-36R antibody) VH: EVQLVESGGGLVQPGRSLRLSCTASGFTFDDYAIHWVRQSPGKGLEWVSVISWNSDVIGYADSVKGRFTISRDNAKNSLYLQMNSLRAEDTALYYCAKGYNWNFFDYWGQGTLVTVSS VL: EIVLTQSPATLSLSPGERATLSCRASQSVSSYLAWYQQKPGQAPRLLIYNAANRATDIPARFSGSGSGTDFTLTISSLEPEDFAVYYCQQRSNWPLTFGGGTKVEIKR", "kon [M⁻¹ s⁻¹]": 491000}

Requested read-out: kon. Entry: H4H14700P2 (antibody, human IgG4 S228P, kappa, V domains shown, Fully human anti-IL-36R antibody) VH: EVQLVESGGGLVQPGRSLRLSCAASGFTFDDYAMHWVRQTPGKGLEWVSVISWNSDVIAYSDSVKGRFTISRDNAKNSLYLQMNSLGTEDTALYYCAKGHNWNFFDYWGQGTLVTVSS VL: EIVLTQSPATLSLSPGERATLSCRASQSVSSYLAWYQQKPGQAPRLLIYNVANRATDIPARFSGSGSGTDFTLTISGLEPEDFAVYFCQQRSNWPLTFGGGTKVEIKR
455000

Same question for H4H14757P (antibody, human IgG4 S228P, kappa, V domains shown, Fully human anti-IL-36R antibody) VH: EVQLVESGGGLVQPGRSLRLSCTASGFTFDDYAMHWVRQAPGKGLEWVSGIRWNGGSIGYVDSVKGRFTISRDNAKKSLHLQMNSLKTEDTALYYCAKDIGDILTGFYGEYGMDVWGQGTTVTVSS VL: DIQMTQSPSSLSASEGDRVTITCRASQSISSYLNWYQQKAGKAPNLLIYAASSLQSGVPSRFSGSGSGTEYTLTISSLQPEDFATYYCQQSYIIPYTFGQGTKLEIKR please.
523000

Can you check H4H14758P (antibody, human IgG4 S228P, kappa, V domains shown, Fully human anti-IL-36R antibody) VH: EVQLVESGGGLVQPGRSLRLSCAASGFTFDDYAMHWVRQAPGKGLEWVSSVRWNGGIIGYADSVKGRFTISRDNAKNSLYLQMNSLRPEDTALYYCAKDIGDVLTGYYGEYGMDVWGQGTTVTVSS VL: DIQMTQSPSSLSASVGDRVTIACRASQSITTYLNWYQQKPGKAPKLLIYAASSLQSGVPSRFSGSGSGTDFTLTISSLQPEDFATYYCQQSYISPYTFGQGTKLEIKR next?
468000
